targetSystem: Jak3 (Homo sapiens)
Sequence (P52333 whole entry): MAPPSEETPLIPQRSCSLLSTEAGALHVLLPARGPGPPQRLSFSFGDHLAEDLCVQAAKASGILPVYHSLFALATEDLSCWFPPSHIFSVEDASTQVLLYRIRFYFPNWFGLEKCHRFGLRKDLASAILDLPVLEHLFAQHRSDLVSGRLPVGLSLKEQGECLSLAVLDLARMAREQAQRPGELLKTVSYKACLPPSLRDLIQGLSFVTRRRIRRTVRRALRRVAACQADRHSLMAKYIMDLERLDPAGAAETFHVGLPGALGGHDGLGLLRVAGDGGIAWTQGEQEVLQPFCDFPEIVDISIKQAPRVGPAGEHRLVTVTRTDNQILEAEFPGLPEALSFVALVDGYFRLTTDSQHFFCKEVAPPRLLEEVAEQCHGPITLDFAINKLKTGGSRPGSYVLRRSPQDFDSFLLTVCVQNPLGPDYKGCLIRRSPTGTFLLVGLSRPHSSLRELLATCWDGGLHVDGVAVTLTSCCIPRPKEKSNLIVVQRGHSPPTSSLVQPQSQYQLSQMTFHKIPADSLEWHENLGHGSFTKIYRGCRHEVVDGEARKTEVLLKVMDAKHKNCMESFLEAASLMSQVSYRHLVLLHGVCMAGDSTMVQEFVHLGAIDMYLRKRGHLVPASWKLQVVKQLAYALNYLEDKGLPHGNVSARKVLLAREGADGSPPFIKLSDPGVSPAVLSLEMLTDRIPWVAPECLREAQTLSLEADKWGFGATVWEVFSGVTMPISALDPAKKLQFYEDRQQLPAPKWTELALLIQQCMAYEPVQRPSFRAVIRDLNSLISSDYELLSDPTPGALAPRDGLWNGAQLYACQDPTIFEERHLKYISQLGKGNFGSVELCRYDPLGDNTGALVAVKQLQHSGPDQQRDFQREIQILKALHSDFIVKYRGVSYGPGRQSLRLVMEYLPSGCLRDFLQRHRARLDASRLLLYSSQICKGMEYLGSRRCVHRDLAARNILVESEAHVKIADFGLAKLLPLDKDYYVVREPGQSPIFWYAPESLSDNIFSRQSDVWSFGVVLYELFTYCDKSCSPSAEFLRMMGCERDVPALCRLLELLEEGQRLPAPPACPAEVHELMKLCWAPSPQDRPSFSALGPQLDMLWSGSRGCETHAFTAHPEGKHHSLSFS
assay: Jak3 autokinase activity of immunopurified Jak3 (phosphotyrosine Western blot)
measurementParameters: 100 μM ATP
Method: Immunopurified Jak3 was assayed for Jak3 autokinase activity and tested by phosphotyrosine Western blot in the absence or presence of 100 μM ATP and/or drug and compared to controls. Referring now to FIG. 8, direct evidence is provided that […] (NC1153) inhibits Jak3 signaling pathways. […] The bands identified as “PY-Jak3” reveal only the active Jak3 at the indicated dosages of NC1153, with or without IL-2 and ATP.
pIC50: −log10 of the molar value.
metric: pIC50

input: Dear colleague, I am looking for the recorded pIC50 of the following compound: CN(C)CC1CCCCCCCCCC(CN(C)C)C1=O (mixture of isomers) [649641P (NC1153)]
output: ~5.60

###

assay: Oral bioavailability estimated from allograft survival p.o. versus i.v.
measurementParameters: ACI, rat, in vivo, 80 mg/kg p.o. gave similar survivals as 10 mg/kg i.v.
metric: bioavailability

input: Dear colleague, I am looking for the recorded bioavailability of the following compound: CN(C)CC1CCCCCCCCCC(CN(C)C)C1=O (mixture of isomers) [649641P (NC1153)]
output: ~12.5%

###

System: γc/Jak3-dependent PHA-activated human T cells
assay: Proliferation of PHA-activated human T cells ([3H]-thymidine)
Assay type: cell-based
measurementParameters: Homo sapiens, T-cell; 1 nM IL-7; read-out: IC50, IL7 driven cell growth
metric: IC50

input: Dear colleague, I am looking for the recorded IC50 of the following compound: CN(C)CC1CCCCCCCCCC(CN(C)C)C1=O (mixture of isomers) [649641P (NC1153)]
output: ~2500 nM

Where do the numbers come from? From patent US7365096B2.
